assay_system: T1, HIV-2 IN Y143C/N155H (Human immunodeficiency virus type 2 subtype B, UniProt Q89928, I1218V/I1301V/I1372V/M1455R/N1185G/N1323H/N1438H/R1202K/R1392Q/T1348V/T1383A/V1460M/Y1311C)
T1 construct: His-tag (pET-15b) (N)
run_description: strand transfer inhibition, site-directed mutant in N1 background
setup_conditions: Y143C/N155H double mutant in N1 background; 200 nM IN
Experimental: Activity is expressed as a % of control without drug. Experiments were performed two times. Primer 1: N1, N2, T1, T2, 5'-[…]-3'; N3, 5'-[…] […]-3'; T3-T7, 5'-[…]-3'. Primers 2: N1, 5'-[…]-3'; N2, 5'-[…] […]-3'; N3, 5'-[…] C-3'; T1, T2, 5'-[…]-3'; T3-T7, 5'-GGATC […] -3'. The HIV-2 ODN substrate sequences were: UA: 5'-[…]-3'; U5B: 5'-[…]-3'; U5B-2: 5'-[…] […]-3'.
measure: pIC50
Convention used: pIC50 is expressed as -log10 of the molar concentration.

Reported pIC50 for Cc1nnc(C(=O)NC(C)(C)c2nc(C(=O)NCc3ccc(F)cc3)c(O)c(=O)n2C)o1 : what is it?
6.54

* * *

assay_system: HIV-2 N2 IN (Human immunodeficiency virus type 2 subtype B, UniProt Q89928, I1301V/I1428V/M1455R/N1185G/N1438H/R1202K/R1392Q/T1348A/T1383N/V1343I/V1460M)
Construct: His-tag (pET-15b) (N)
Sequence (Q89928 1169-1464 N1185G/R1202K/I1301V/V1343I/T1348A/T1383N/R1392Q/I1428V/N1438H/M1455R/V1460M limits assumed): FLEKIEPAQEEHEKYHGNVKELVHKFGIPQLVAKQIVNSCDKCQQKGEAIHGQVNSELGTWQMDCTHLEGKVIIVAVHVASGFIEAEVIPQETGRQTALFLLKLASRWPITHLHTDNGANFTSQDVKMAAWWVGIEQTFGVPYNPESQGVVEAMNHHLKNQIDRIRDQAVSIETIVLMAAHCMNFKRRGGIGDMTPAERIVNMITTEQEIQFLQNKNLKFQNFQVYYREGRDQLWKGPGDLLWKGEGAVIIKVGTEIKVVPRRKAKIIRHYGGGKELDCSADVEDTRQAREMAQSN
run_description: strand transfer inhibition, IN from clinical isolate N2
setup_conditions: IN from RAL-naive patient N2; 200 nM IN; 37°C; Mg2+
measure: IC50 (nM)
Write it as a number; the unit nM goes unstated.

Reported IC50 for Cc1nnc(C(=O)NC(C)(C)c2nc(C(=O)NCc3ccc(F)cc3)c(O)c(=O)n2C)o1 : what is it?
30

* * *

assay_system: HIV-2 IN E92Q/Y143C (Human immunodeficiency virus type 2 subtype B, UniProt Q89928, E1260Q/I1218V/I1301V/I1372V/M1455R/N1185G/N1438H/R1202K/R1392Q/T1348V/T1383A/V1460M/Y1311C)
Construct: His-tag (pET-15b) (N)
run_description: strand transfer inhibition, site-directed mutant in N1 background
setup_conditions: E92Q/Y143C double mutant in N1 background; 200 nM IN
measure: pIC50
Convention used: pIC50 is expressed as -log10 of the molar concentration.

Reported pIC50 for Cc1nnc(C(=O)NC(C)(C)c2nc(C(=O)NCc3ccc(F)cc3)c(O)c(=O)n2C)o1 : what is it?
6.43

* * *

assay_system: HIV-2 N1 IN (Human immunodeficiency virus type 2 subtype B, UniProt Q89928, I1218V/I1301V/I1372V/M1455R/N1185G/N1438H/R1202K/R1392Q/T1348V/T1383A/V1460M)
Construct: His-tag (pET-15b) (N)
run_description: strand transfer inhibition, IN from clinical isolate N1 (wild-type reference)
setup_conditions: IN from RAL-naive patient N1; 200 nM IN; 37°C; Mg2+
measure: IC50 (nM)
Write it as a number; the unit nM goes unstated.

Reported IC50 for Cc1nnc(C(=O)NC(C)(C)c2nc(C(=O)NCc3ccc(F)cc3)c(O)c(=O)n2C)o1 : what is it?
23
